Molecular target: T1, full-length Sudan GP (GPFL) (Sudan virus (SUDV), UniProt Q7T9D9 33-650)
T1 construct: also called Sudan GPFL; GP(S)FL
T1 sequence: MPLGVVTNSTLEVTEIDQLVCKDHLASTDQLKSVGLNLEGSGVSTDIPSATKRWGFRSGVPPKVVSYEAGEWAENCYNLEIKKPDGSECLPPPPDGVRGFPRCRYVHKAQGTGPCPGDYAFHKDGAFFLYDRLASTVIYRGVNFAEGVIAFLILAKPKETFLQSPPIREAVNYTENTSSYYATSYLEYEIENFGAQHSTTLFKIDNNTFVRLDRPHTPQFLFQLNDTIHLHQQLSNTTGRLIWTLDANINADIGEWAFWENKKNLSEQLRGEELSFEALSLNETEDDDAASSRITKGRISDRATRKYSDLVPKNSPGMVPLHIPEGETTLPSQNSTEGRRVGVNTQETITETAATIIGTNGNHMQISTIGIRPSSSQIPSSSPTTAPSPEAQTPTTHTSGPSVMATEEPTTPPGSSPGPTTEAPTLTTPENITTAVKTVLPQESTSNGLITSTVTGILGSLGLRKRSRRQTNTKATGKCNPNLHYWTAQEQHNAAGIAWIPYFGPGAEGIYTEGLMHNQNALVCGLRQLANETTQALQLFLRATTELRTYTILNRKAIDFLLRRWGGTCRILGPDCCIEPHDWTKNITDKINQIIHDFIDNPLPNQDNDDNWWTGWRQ
Assay: BLI, Fab, pH 7.4
measurement label: Kd (nM)
One number for each entry, in nM.

Observe how each entry below is paired with its result.
>  <binder>
Fab generated from 523S (Fab, V domains shown, also called 523S Fab) VH: QVQLVQSGAELKKPGASVKVSCKASGYTFSDHYVHWVRQAPGQGLEWMGRINPNSGGTNYAQRFLGRVTMTRDASISTAYLDLSSLRSDDTAVYYCARSSSSWSGHYYYYMDVWGKGTTVTVSS VL: QSVLTQPPSVSAAPGQRVTISCSGSTSNIASNFVSWYQQLPGTAPKLLIYDNHKRPSGIPDRFSGSKSGTSATLGITGLQTGDEADYYCGTWDSSLSAGVFGGGTKVTVL

>  <Kd (nM)>
1.61

$$$$
>  <binder>
Fab generated from 241S (Fab, V domains shown) VH: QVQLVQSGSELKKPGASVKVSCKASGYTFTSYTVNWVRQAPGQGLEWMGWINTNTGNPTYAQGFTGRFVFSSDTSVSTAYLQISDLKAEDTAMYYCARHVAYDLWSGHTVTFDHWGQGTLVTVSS VL: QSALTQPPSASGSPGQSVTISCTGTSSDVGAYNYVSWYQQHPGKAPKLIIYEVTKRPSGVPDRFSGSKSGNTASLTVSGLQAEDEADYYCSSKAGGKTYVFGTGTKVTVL

>  <Kd (nM)>
3.47

$$$$

Shift focus to the following entry.
Please give the documented Kd of Fab generated from 354S (Fab, V domains shown, also called 354S Fab) VH: QVQLVQSGAEVKKPGASVKVSCKASGYSFASYYIHWVRQAPGQGLEWMGIINPSGGTTSYAQKFQGRVTMTRDTSTSTVYMELSSLGSEDTAVYYCARIVDRVTIYLNGVDNYWGQGTLVTVSS VL: EIVMTQSPATLSVSPGERVTLSCRASQSVSSNLAWFQQTPGQAPRLLIYGASTRASGVPARFSGSGSGTEFTLTISSLQSEDFAVYYCLQYNNWPPGWKYGFGQGTKLEIK
8.89
